system: SK-MEL-28; experiment: SRB colorimetric assay of cell growth and viability, SK-MEL-28; assay type: cell-based, human; details: 48 hours exposure
Where a SMILES comes first, the peptide text is derived from it. Bridges are numbered along the chain shown (N, C = ends). [ ]: non-standard residue; d: D form. The star is where a group is joined. d(aIle) = CC[C@H](C)[C@@H](N)C(=O)O; d(aThr) = C[C@@H](O)[C@@H](N)C(=O)O; Hexanoyl(5-Me) = CC(C)CCCC(=O)*; Orn = NCCC[C@H](N)C(=O)O; Dhb = C/C=C(\N)C(=O)O

[
  {
    "Compound": "C/C=C1\\NC(=O)[C@H](Cc2ccccc2)NC(=O)[C@@H](C(C)C)NC(=O)[C@@H](C(C)CC)NC(=O)[C@H](NC(=O)[C@H](NC(=O)[C@H](CCCN)NC(=O)[C@H]2CCCN2C(=O)[C@H](NC(=O)[C@@H](NC(=O)[C@@H](NC(=O)[C@H](NC(=O)CCC(C)CC)C(C)C)C(C)O)C(C)C)C(C)C)C(C)CC)C(C)OC(=O)[C@H](C(C)C)NC1=O (stereo partly drawn)",
    "TGI MEL-28": "4.10E−07 Molar"
  },
  {
    "Compound": "C/C=C1\\NC(=O)[C@H](Cc2ccccc2)NC(=O)[C@@H](C(C)C)NC(=O)[C@@H]([C@@H](C)CC)NC(=O)[C@H](NC(=O)[C@H](NC(=O)[C@H](CCCN)NC(=O)[C@H]2CCCN2C(=O)[C@H](NC(=O)CNC(=O)[C@@H](NC(=O)[C@H](NC(=O)CCCC(C)C)C(C)C)[C@@H](C)O)C(C)C)[C@@H](C)CC)[C@@H](C)OC(=O)[C@H](C(C)C)NC1=O [Compound 42, [Gly^11]-KF] ({Hexanoyl(5-Me)}-[dV]TG[dV][dP][Orn][d(aIle)][d(aThr)][d(aIle)][dV]F[Dhb]V; ester 8-C)",
    "TGI MEL-28": "6.96E−06 Molar"
  },
  {
    "Compound": "C/C=C1\\NC(=O)[C@H](Cc2ccccc2)NC(=O)[C@@H](C(C)C)NC(=O)[C@@H]([C@@H](C)CC)NC(=O)[C@H](NC(=O)[C@H](NC(=O)[C@H](CCCN)NC(=O)[C@H]2CCCN2C(=O)[C@H](NC(=O)[C@H](C)NC(=O)[C@@H](NC(=O)[C@H](NC(=O)CCCC(C)C)C(C)C)[C@@H](C)O)C(C)C)[C@@H](C)CC)[C@@H](C)OC(=O)[C@H](C(C)C)NC1=O [Compound 44, [Ala^11]-KF] ({Hexanoyl(5-Me)}-[dV]TA[dV][dP][Orn][d(aIle)][d(aThr)][d(aIle)][dV]F[Dhb]V; ester 8-C)",
    "TGI MEL-28": "6.90E−06 Molar"
  }
]

* * *

tested on: SK-BR-3; assay: SRB colorimetric assay of cell growth and viability, SK-BR-3; format: cell-based, human; conditions: 48 hours exposure
Where a SMILES comes first, the peptide text is derived from it. Bridges are numbered along the chain shown (N, C = ends). [ ]: non-standard residue; d: D form. The star is where a group is joined. d(aIle) = CC[C@H](C)[C@@H](N)C(=O)O; d(aThr) = C[C@@H](O)[C@@H](N)C(=O)O; Hexanoyl(5-Me) = CC(C)CCCC(=O)*; Orn = NCCC[C@H](N)C(=O)O; Dhb = C/C=C(\N)C(=O)O

[
  {
    "Compound": "C/C=C1\\NC(=O)[C@H](Cc2ccccc2)NC(=O)[C@@H](C(C)C)NC(=O)[C@@H]([C@@H](C)CC)NC(=O)[C@H](NC(=O)[C@H](NC(=O)[C@H](CCCN)NC(=O)[C@H]2CCCN2C(=O)[C@H](NC(=O)[C@H](CC(C)C)NC(=O)[C@@H](NC(=O)[C@H](NC(=O)CCCC(C)C)C(C)C)[C@@H](C)O)C(C)C)[C@@H](C)CC)[C@@H](C)OC(=O)[C@H](C(C)C)NC1=O [Compound 45, [Leu^11]-KF] ({Hexanoyl(5-Me)}-[dV]TL[dV][dP][Orn][d(aIle)][d(aThr)][d(aIle)][dV]F[Dhb]V; ester 8-C)",
    "Assayed Target": "SK-BR-3",
    "LC50, µM": 1.68
  },
  {
    "Compound": "C/C=C1\\NC(=O)[C@H](Cc2ccccc2)NC(=O)[C@@H](C(C)C)NC(=O)[C@@H]([C@@H](C)CC)NC(=O)[C@H](NC(=O)[C@H](NC(=O)[C@H](CCCN)NC(=O)[C@H]2CCCN2C(=O)[C@H](NC(=O)[C@H](CCC(N)=O)NC(=O)[C@@H](NC(=O)[C@H](NC(=O)CCCC(C)C)C(C)C)[C@@H](C)O)C(C)C)[C@@H](C)CC)[C@@H](C)OC(=O)[C@H](C(C)C)NC1=O [Compound 48, [Gln^11]-KF] ({Hexanoyl(5-Me)}-[dV]TQ[dV][dP][Orn][d(aIle)][d(aThr)][d(aIle)][dV]F[Dhb]V; ester 8-C)",
    "Assayed Target": "SK-BR-3",
    "LC50, µM": 6.64
  }
]
